- Target or test system: T1, recombinant human HER2 extracellular domain protein (human, UniProt P04626 23-652)
- T1 construct: range 23-652; Range is printed for the immunogen/panning protein; also called ErbB2; recombinant HER2 protein
- Assay protocol: BLI, Protein A capture
pKd: −log10 of the molar value.
Below, each of the binders is paired with its reported pKd value.
Measured property: pKd

Binder	Value observed
2126-Hu-H31 (antibody, IgG1, V domains shown, IgG1/Cκ) VH: QVQLVQSGSELKKPGASVKVSCKASGYTFTDYSMHWVRQAPGQGLEWMGWINTETGDPTYADDFKGRFVFSLDTSVSTAYLQISSLKAEDTAVYFCVRVGRYDYAMDYWGQGTTVTVSS VL: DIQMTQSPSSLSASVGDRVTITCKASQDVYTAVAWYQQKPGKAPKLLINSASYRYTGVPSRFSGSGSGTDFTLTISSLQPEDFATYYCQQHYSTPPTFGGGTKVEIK	8.06
2126-Hu-H61 (antibody, IgG1, V domains shown, IgG1/Cκ) VH: QVQLVQSGSELKKPGASVKVSCKASGYTFTDYSMHWVRQAPGQGLEWMGWINTETGEPTYADDFKGRFVFSLDTSVSTAYLQISSLKAEDTAVYFCVRVGRYDYAFDYWGQGTTVTVSS VL: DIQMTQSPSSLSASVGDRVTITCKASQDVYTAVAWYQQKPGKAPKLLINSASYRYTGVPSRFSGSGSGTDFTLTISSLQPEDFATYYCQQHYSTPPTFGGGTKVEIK	7.66
2126-Hu-H56 (antibody, IgG1, name in Kabat numbering, V domains shown, IgG1/Cκ) VH: QVQLVQSGSELKKPGASVKVSCKASGYTFTDYSMHWVRQAPGQGLEWMGWINTETGEPTYADDFKGRFVFSLDTSVSTAYLQISSLKAEDTAVYFCVRVGRYEYAMDYWGQGTTVTVSS VL: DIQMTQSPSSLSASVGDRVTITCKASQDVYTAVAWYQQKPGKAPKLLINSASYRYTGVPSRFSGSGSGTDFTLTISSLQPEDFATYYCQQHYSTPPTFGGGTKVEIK	7.44
2126-Hu-H57 (antibody, IgG1, name in Kabat numbering, V domains shown, IgG1/Cκ) VH: QVQLVQSGSELKKPGASVKVSCKASGYTFTDYSMHWVRQAPGQGLEWMGWINTETGEPTYADDFKGRFVFSLDTSVSTAYLQISSLKAEDTAVYFCVRVGRYGYAMDYWGQGTTVTVSS VL: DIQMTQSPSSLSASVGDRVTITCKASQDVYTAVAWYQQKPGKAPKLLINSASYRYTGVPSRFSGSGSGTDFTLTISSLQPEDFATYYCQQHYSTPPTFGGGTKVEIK	7.84
2126-Hu-H38 (antibody, IgG1, V domains shown, IgG1/Cκ) VH: QVQLVQSGSELKKPGASVKVSCKASGYTFTDYSMHWVRQAPGQGLEWMGWINTETGEPTYADDFKGRFVISLDTSVSTAYLQISSLKAEDTAVYFCVRVGRYDYAMDYWGQGTTVTVSS VL: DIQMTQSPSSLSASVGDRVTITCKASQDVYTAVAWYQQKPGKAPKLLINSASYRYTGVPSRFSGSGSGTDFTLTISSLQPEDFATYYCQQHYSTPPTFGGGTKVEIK	8.08
